Test system: PMEL17
procedure text: Cross-reactivity (cross-specificity profile) of anti-PMEL17 IgGs in dose response FACS
Type: binding
Set-up: key: h/c/r/m: human/cyno/rat/mouse; h/c/r: human/cyno/rat; h/c/(m): human/cyno/mouse; h/c: human/cyno
run parameters: h human, c cyno, r rat, m mouse
assay metric: Cross spe profile (based on C14 detection ab)

1) Y010910: anti-PMEL17 antibody (IgG) (antibody, V domains shown) VH: EVQLVESGGGLVKPGGSLRLSCAASGFTFSNAWMSWVRQAPGKGLEWVGRIKSKTDAGTTDYAAPVKGRFTISRDDSKNTLYLQMNSLKTEDTAVYYCARVASPSAPGGFDYWGQGTLVTVSS VL: DIQMTQSPSSLSASVGDRVTITCRASQGISNYLAWYQQKPGKVPKLLIYAASTLQSGVPSRFSGSGSGTDFTLTISSLQPEDVATYYCQQSLFAPFTFGQGTKVEIK: h/c/(m)
2) Y010900: anti-PMEL17 antibody (IgG) (antibody, V domains shown) VH: EVQLVESGGGLVKPGGSLRLSCAASGFTFSNAWMSWVRQAPGKGLEWVGRIKSKTDAGTTDYAAPVKGRFTISRDDSKNTLYLQMNSLKTEDTAVYYCARTIYPSAPSSSLDYWGQGTLVTVSS VL: DIQMTQSPSSLSASVGDRVTITCRASQGISNYLAWYQQKPGKVPKLLIYAASTLQSGVPSRFSGSGSGTDFTLTISSLQPEDVATYYCQQLIFFPLTFGQGTKVEIK: h/c/r/m
3) Y010355: anti-PMEL17 antibody (IgG) (antibody, V domains shown) VH: EVQLVESGGGLVKPGGSLRLSCAASGFTFSNYWISWVRQAPGKGLEWVGRIKSKTYGGTTDYAEPVKGRFTISRDDSKNTLYLQMNSLKTEDTAVYYCARTSRRSYAFDYWGQGTLVTVSS VL: DIQMTQSPSTLSASVGDRVTITCRASQSISSWLAWYQQKPGKAPKLLIYDASSLESGVPSRFSGSGSGTEFTLTISSLQPEDFATYYCQQITRYPVTFGQGTKVEIK: h/c/r/m
4) Y010903: anti-PMEL17 antibody (IgG) (antibody, V domains shown) VH: EVQLVESGGGLVKPGGSLRLSCAASGFTFSNAWMSWVRQAPGKGLEWVGRIKSKTDAGTTDYAAPVKGRFTISRDDSKNTLYLQMNSLKTEDTAVYYCARASHRLHSLFDVWGQGTLVTVSS VL: DIQMTQSPSTLSASVGDRVTITCRASQSISSWLAWYQQKPGKAPKLLIYDASSLESGVPSRFSGSGSGTEFTLTISSLQPEDFATYYCQQGLFYPHTFGQGTKVEIK: h/c/(m)
5) Y010906: anti-PMEL17 antibody (IgG) (antibody, V domains shown) VH: EVQLVESGGGLVKPGGSLRLSCAASGFTFSNAWMSWVRQAPGKGLEWVGRIKSKTDAGTTDYAAPVKGRFTISRDDSKNTLYLQMNSLKTEDTAVYYCARDEYPWGWFDVWGQGTLVTVSS VL: DIQMTQSPSSVSASVGDRVTITCRASQGISSWLAWYQQKPGKAPKLLIYAASSLQSGVPSRFSGSGSGTDFTLTISSLQPEDFATYYCQQYIFYPLTFGQGTKVEIK: h/c/r/m
6) MOR024354: anti-PMEL17 antibody (IgG) (antibody, V domains shown) VH: QVQLLESGGGLVQPGGSLRLSCAASGFTFSSFGMSWVRQAPGKGLEWVSAISYSGSDTYYADSVKGRFTISRDNSKNTLYLQMNSLRAEDTAVYYCARDVGVMDYWGQGTLVTVSS VL: SYELTQPLSVSVALGQTARITCSGDNLGTYYAHWYQQKPGQAPVLVIYSQSHRPSGIPERFSGSNSGNTATLTISRAQAGDEADYYCGAWDAPSPELVFGGGTKLTVL: h/c/r

Each recorded value in this set is attributed to patent US11779649B2.
